Molecular target: 15N-labelled NDM-1 (Klebsiella pneumoniae)
Construct: made in house
Assay: 1H,15N HSQC NMR chemical shift perturbation titration, NDM-1
Type: binding
Details: Estimated binding constant (Kd), residue 191S, Table S5; per-residue fit, NDM-1 191S
Procedure: Solution NMR spectroscopy is a powerful tool to assess protein–ligand interactions under close to physiological conditions.[47] […] Chemical shift perturbation was calculated according equation (1) 2 […] Further on, Kd was calculated according: 3 […]
pKd: −log10 of the molar value.

Compound: O=C(Cc1cccs1)NC(C1CCCCN1)P(=O)(O)O (stereo not drawn) [Compound 5i-1]
Tgt: 15N-labelled NDM-1 (Klebsiella pneumoniae)
pKd: 3.92
--
Compound: O=C(NC(C1CCCCN1)P(=O)(O)O)c1ccsc1 (stereo not drawn) [Compound 5c-1]
Tgt: 15N-labelled NDM-1 (Klebsiella pneumoniae)
pKd: 3.32
--
Compound: O=C(NC(C1CCCCN1)P(=O)(O)O)c1cccs1 (stereo not drawn) [Compound 5b-1]
Tgt: 15N-labelled NDM-1 (Klebsiella pneumoniae)
pKd: 3.07

* * *

Target: 15N-labelled NDM-1 (Klebsiella pneumoniae, UniProt C7C422)
Construct: made in house
Sequence (C7C422 29-270 limits assumed): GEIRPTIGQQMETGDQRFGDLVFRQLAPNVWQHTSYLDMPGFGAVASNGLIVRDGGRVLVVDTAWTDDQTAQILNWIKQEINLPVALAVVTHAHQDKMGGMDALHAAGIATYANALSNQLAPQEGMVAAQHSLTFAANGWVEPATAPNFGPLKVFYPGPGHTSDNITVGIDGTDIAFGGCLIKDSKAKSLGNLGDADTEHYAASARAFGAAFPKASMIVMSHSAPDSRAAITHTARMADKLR
Assay: 1H,15N HSQC NMR chemical shift perturbation titration, NDM-1
Type: binding
Conditions: Estimated binding constant (Kd), residue 263A_266A, Table S5; per-residue fit, NDM-1 263A_266A
pKd: −log10 of the molar value.

Molecule: O=C(Cc1cccs1)NC(C1CCCCN1)P(=O)(O)O (stereo not shown)
pKd: 3.16

* * *

Target: 15N-labelled NDM-1 (Klebsiella pneumoniae, UniProt C7C422)
Construct: made in house
Assay: 1H,15N HSQC NMR chemical shift perturbation titration, NDM-1
Type: binding
Settings: Estimated binding constant (Kd), residue 232S, Table S5; per-residue fit, NDM-1 232S

Molecule: O=C(NC(C1CCCCN1)P(=O)(O)O)c1cccs1 (stereo not shown) [Compound 5b-1]
Kd [mM]: 12.1

Molecule: O=C(Cc1ccsc1)NC(C1CCCCN1)P(=O)(O)O (stereo not shown) [Compound 5j-1]
Kd [mM]: 21.3

Molecule: O=C(Cc1cccs1)NC(C1CCCCN1)P(=O)(O)O (stereo not shown) [Compound 5i-2]
Kd [mM]: 5.57

Molecule: O=C(NC(C1CCCCN1)P(=O)(O)O)c1ccsc1 (stereo not shown) [Compound 5c-1]
Kd [mM]: 10.2

* * *

Target: 15N-labelled NDM-1 (Klebsiella pneumoniae, UniProt C7C422)
Construct: made in house
Test: 1H,15N HSQC NMR chemical shift perturbation titration, NDM-1
Format: binding
Details: Estimated binding constant (Kd), residue 211K, Table S5; per-residue fit, NDM-1 211K
Form field: Kd (one value per entry).

Compound: O=C(NC(C1CCCCN1)P(=O)(O)O)c1ccsc1 (stereo not shown)
Kd: 10 mM

Compound: O=C(Cc1cccs1)NC(C1CCCCN1)P(=O)(O)O (stereo not shown) [Compound 5i-2]
Kd: 17.1 mM

Compound: O=C(NC(C1CCCCN1)P(=O)(O)O)c1cccs1 (stereo not shown)
Kd: 3.49 mM

Compound: O=C(Cc1cccs1)NC(C1CCCCN1)P(=O)(O)O (stereo not shown) [Compound 5i-1]
Kd: 0.14 mM

* * *

Biological target: 15N-labelled NDM-1 (Klebsiella pneumoniae, UniProt C7C422)
Construct: made in house
Assay: 1H,15N HSQC NMR chemical shift perturbation titration, NDM-1
Format: binding
Conditions: Estimated binding constant (Kd), residue 159H, Table S5; per-residue fit, NDM-1 159H
pKd: −log10 of the molar value.
Below is a list of entries, each paired with its recorded pKd value.

Compound: O=C(Cc1ccsc1)NC(C1CCCCN1)P(=O)(O)O (centres unmarked) [Compound 5j-1]
pKd: 2.08
--
Compound: O=C(Cc1cccs1)NC(C1CCCCN1)P(=O)(O)O (centres unmarked) [Compound 5i-2]
pKd: 2.08
--
Compound: O=C(Cc1cccs1)NC(C1CCCCN1)P(=O)(O)O (centres unmarked) [Compound 5i-1]
pKd: 2.61
--
Compound: O=C(NC(C1CCCCN1)P(=O)(O)O)c1ccsc1 (centres unmarked) [Compound 5c-1]
pKd: 1.93
--
Compound: O=C(NC(C1CCCCN1)P(=O)(O)O)c1cccs1 (centres unmarked) [Compound 5b-1]
pKd: 1.67
